Source: patent US10246429B2

Please respond with reported IC50 for every item in the list.
# target entity: BACE2 (Homo sapiens (Human))
# assay explanation: In vitro enzymatic BACE2 FRET assay
# Assay type: biochemical
# protocol conditions: read-out: IC50 IP (μM) BACE2 Enzyme
Express your answer in µM, writing the number without its unit.

stdin: IC50 lookup needed for "CNC(=O)[C@]12C[C@H]1[C@@](C)(c1cc(/C=C(\F)c3ccc(C#CC4CC4)cn3)ccc1F)N=C(N)S2" , thanks.
stdout: 0.415

stdin: IC50 lookup needed for "CNC(=O)[C@]12C[C@H]1[C@@](C)(c1cc(/C=C(\F)c3ncc(C#N)cc3C)ccc1F)N=C(N)S2" , thanks.
stdout: 0.621

stdin: IC50 lookup needed for "COC[C@]12C[C@H]1[C@@](C)(c1cc(/C=C(\F)c3cnc(Cl)cn3)ccc1F)N=C(N)S2" , thanks.
stdout: 0.08

stdin: IC50 lookup needed for "C[C@]1(c2cc(/C=C(\F)c3ccc(C#N)cn3)ccc2F)N=C(N)S[C@@]2(C(=O)N3CC[C@H](O)C3)C[C@H]21" , thanks.
stdout: 0.0364

stdin: IC50 lookup needed for "COC[C@]12C[C@H]1[C@@](C)(c1cc(/C=C(\F)c3ccc(C#N)cn3)ccc1F)N=C(N)S2" , thanks.
stdout: 0.192

stdin: IC50 lookup needed for "Cc1noc(COc2cnc(/C(F)=C/c3ccc(F)c([C@@]4(C)N=C(N)S[C@@]5(C(=O)N(C)C)C[C@H]54)c3)cn2)n1" , thanks.
stdout: 0.07

stdin: IC50 lookup needed for "C[C@H]1[C@H](O)CCN1C(=O)[C@]12C[C@H]1[C@@](C)(c1cc(/C=C(\F)c3ccc(C#N)cn3)ccc1F)N=C(N)S2" , thanks.
stdout: 0.055

stdin: IC50 lookup needed for "COC(=O)[C@@]12SC(N)=N[C@](C)(c3cc(/C=C(\F)c4ccc(C#N)cn4)ccc3F)[C@@H]1C2(F)F" , thanks.
stdout: 0.252

stdin: IC50 lookup needed for CN(C)C(=O)[C@]12C[C@H]1[C@@](C)(c1cc(/C(F)=C/c3ccc(C#N)cc3)ccc1F)N=C(N)S2 [Example 186] , thanks.
stdout: 0.302

stdin: IC50 lookup needed for "C#CCOc1cnc(/C(F)=C/c2ccc(F)c([C@@]3(C)N=C(N)S[C@@]4(C(=O)N5CCOC[C@H]5C)C[C@H]43)c2)cn1" , thanks.
stdout: 0.29

stdin: IC50 lookup needed for "CNC(=O)[C@]12C[C@H]1[C@@](C)(c1cc(/C=C(\F)c3ccc(OC(F)(F)F)cn3)ccc1F)N=C(N)S2" , thanks.
stdout: 0.285

stdin: IC50 lookup needed for "CN(C)C(=O)[C@]12C[C@H]1[C@@](C)(c1cc(/C=C(\F)c3ccc(C#N)nn3)ccc1F)N=C(N)S2" , thanks.
stdout: 0.406

stdin: IC50 lookup needed for "C[C@H]1[C@@H](F)CCN1C(=O)[C@]12C[C@H]1[C@@](C)(c1cc(/C=C(\F)c3ccc(C#N)cn3)ccc1F)N=C(N)S2" , thanks.
stdout: 0.111

stdin: IC50 lookup needed for "C#CCOc1cnc(/C(F)=C/c2ccc(F)c([C@@]3(C)N=C(N)S[C@@]4(C(=O)N5[C@H]6COC[C@@H]5COC6)C[C@H]43)c2)cn1" , thanks.
stdout: 0.176

stdin: IC50 lookup needed for "C[C@]1(c2cc(/C=C(\F)c3ccc(C#N)cn3)ccc2F)N=C(N)S[C@@]2(C(=O)N3CCOC4(COC4)C3)C[C@H]21" , thanks.
stdout: 0.013

stdin: IC50 lookup needed for "C#CCOc1cnc(/C(F)=C/c2ccc(F)c([C@@]3(C)N=C(N)S[C@@]4(C(=O)N5CC[C@H](F)C5)C[C@H]43)c2)cn1" , thanks.
stdout: 0.093

###

# target entity: BACE2 (Homo sapiens (Human), UniProt Q9Y5Z0)
# Sequence (Q9Y5Z0 63-518): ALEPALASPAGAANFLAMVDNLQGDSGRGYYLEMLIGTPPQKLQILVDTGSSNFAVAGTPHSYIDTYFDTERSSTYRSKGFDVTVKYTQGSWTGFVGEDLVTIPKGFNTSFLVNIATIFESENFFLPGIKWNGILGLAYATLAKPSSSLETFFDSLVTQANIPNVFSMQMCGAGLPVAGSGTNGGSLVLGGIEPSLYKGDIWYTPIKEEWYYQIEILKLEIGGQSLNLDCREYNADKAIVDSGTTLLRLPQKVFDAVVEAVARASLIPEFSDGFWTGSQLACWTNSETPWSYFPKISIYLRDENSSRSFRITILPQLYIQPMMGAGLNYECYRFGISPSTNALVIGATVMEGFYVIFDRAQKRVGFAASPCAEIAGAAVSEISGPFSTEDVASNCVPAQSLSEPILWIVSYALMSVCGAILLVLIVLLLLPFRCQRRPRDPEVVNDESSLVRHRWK
# assay explanation: In vitro enzymatic BACE2 FRET assay
# Type: biochemical
# protocol conditions: read-out: IC50 IP (μM) BACE2 Enzyme
Please respond with reported IC50 for every item in the list.
Express your answer in µM, writing the number without its unit.

stdin: IC50 lookup needed for "COC(=O)[C@]12C[C@H]1[C@@](C)(c1cc(/C=C(\F)c3cnc(Br)cn3)ccc1F)N=C(N)S2" , thanks.
stdout: 1.03

stdin: IC50 lookup needed for "CN(C)C(=O)[C@]12C[C@H]1[C@@](C)(c1cc(/C=C(\F)c3ccc(C#N)cc3)ccc1F)N=C(N)S2" , thanks.
stdout: 0.104

stdin: IC50 lookup needed for "CNC(=O)[C@]12C[C@H]1[C@@](C)(c1cc(/C=C(\F)c3cnc(OCc4cnco4)cn3)ccc1F)N=C(N)S2" , thanks.
stdout: 0.285

stdin: IC50 lookup needed for "CNC(=O)[C@]12C[C@H]1[C@@](C)(c1cc(/C=C(\F)c3ccc(C#CC4(C)COC4)cn3)ccc1F)N=C(N)S2" , thanks.
stdout: 0.756

stdin: IC50 lookup needed for "COC[C@]12C[C@H]1[C@@](C)(c1cc(/C=C(\F)c3cnc(OCC4CCC4)cn3)ccc1F)N=C(N)S2" , thanks.
stdout: 1.84

stdin: IC50 lookup needed for "C#CCOc1cnc(/C(F)=C/c2ccc(F)c([C@@]3(C)N=C(N)S[C@@]4(C#N)C[C@H]43)c2)cn1" , thanks.
stdout: 0.081

stdin: IC50 lookup needed for "CC#Cc1cnc(/C(F)=C/c2ccc(F)c([C@@]3(C)N=C(N)S[C@@]4(C(=O)NC)C[C@H]43)c2)cn1" , thanks.
stdout: 0.229

stdin: IC50 lookup needed for CC1(C)CC2CC(C)(CN2C(=O)[C@]23C[C@H]2[C@@](C)(c2cc(/C=C(\F)c4ccc(C#N)cn4)ccc2F)N=C(N)S3)C1 (stereo partly drawn) , thanks.
stdout: 0.0363

stdin: IC50 lookup needed for "C[C@]1(c2cc(/C=C(\F)c3ccc(Br)cn3)ccc2F)N=C(N)S[C@@]2(C(=O)N3CCOCC3)C[C@H]21" , thanks.
stdout: 0.005

stdin: IC50 lookup needed for C[C@]1(c2cc(/C=C(\F)c3ccc(C#N)cn3)ccc2F)N=C(N)S[C@@]2(C(=O)N3Cc4ccccc4C3)C[C@H]21 [Example 129, bis(2,2,2-trifluoroacetate)] , thanks.
stdout: 0.0311

stdin: IC50 lookup needed for "CN(C)C(=O)[C@]12C[C@H]1[C@@](C)(c1cc(/C=C(\F)c3ccc(C#N)cn3)ccc1F)N=C(N)S2" , thanks.
stdout: 0.0143

stdin: IC50 lookup needed for "C[C@]1(c2cc(/C=C(\F)c3ccc(C#N)cn3)ccc2F)N=C(N)S[C@@]2(C(=O)N3CCNC(=O)C3)C[C@H]21" , thanks.
stdout: 0.0282

stdin: IC50 lookup needed for "C[C@H]1CN(C(=O)[C@]23C[C@H]2[C@@](C)(c2cc(/C=C(\F)c4ccc(C#N)cn4)ccc2F)N=C(N)S3)[C@@H](C)CO1" , thanks.
stdout: 0.124

stdin: IC50 lookup needed for "C#Cc1cnc(/C(F)=C/c2ccc(F)c([C@@]3(C)N=C(N)S[C@@]4(C(=O)NC)C[C@H]43)c2)cn1" , thanks.
stdout: 0.16

stdin: IC50 lookup needed for "COC(CNC(=O)[C@]12C[C@H]1[C@@](C)(c1cc(/C=C(\F)c3ccc(C#N)cn3)ccc1F)N=C(N)S2)OC" , thanks.
stdout: 0.024
